# target.system: AgLsb1
# protocol.description: SPOT peptide array binding signal intensity (averaged, normalized) (arbitrary units (background-subtracted, floor 0; scale differs between SH3 domains)); higher = stronger binding of the SH3 domain to the peptide
Definition: the class of an entry is the range in range 1 = under 2, range 2 = from 2 up to 30, range 3 = 30 and over that contains its SPOT peptide array binding signal intensity.

// below: answered binders
**Query** Class? Entry: `SSSSTPPTLPPRRIE`
**Result** range 3

**Query** Class? Entry: `FPPKRKPLLRPQRSD`
**Result** range 2

**Query** Class? Entry: `PSRRAPLQLPQLVNK`
**Result** range 3

**Query** Class? Entry: `NFLRLLIGLPSQNEL`
**Result** range 1

**Query** Class? Entry: `KIRRSSLMIPNPQQF`
**Result** range 3

Others:
**Query** Class? Entry: `SHRLWLYAAPKRPKT`
**Result** range 1

**Query** Class? Entry: `PPIPNAPLSPAPAVP`
**Result** range 2

**Query** Class? Entry: `YLTRPLPSTPNEDSR`
**Result** range 3

Hello, the source for this data is the supplement of paper PMC4466140, in case you need it.
